molecular target: DRB3*0101 (Homo sapiens, UniProt P01903+P79483); test: biochemical
# note: boundary value 3 µM maps to class 0; IC50 below it maps to class 1

Say whether its IC50 is strictly beneath 3 µM. Entry: CC[C@H](C)[C@H](NC(=O)CNC(=O)[C@@H](NC(=O)[C@@H](NC(=O)[C@@H](NC(=O)[C@H](CC(N)=O)NC(=O)[C@H](CO)NC(=O)[C@H](CCC(=O)O)NC(=O)CNC(=O)[C@H](Cc1ccccc1)NC(=O)[C@@H]1CCCN1C(=O)[C@@H]1CCCN1C(=O)[C@H](CCC(=O)O)NC(=O)[C@H](C)NC(=O)[C@@H](N)CCC(=O)O)[C@@H](C)CC)C(C)C)[C@@H](C)CC)C(=O)O
class 0

Just wondering, is IC50 of CC[C@H](C)[C@H](NC(=O)[C@H](C)NC(=O)[C@H](CCC(=O)O)NC(=O)[C@H](CCCNC(=N)N)NC(=O)[C@@H](N)C(C)C)C(=O)N[C@@H](CCCCN)C(=O)N[C@@H](CCCNC(=N)N)C(=O)N[C@@H](CCCNC(=N)N)C(=O)N[C@@H](CC(C)C)C(=O)N[C@@H](CCCNC(=N)N)C(=O)N[C@H](C(=O)N[C@@H](CC(C)C)C(=O)N[C@H](C(=O)N[C@@H](CC(C)C)C(=O)N[C@@H](C)C(=O)O)[C@@H](C)CC)[C@@H](C)O below 3 µM?
class 1

API: query returns whether the compound falls strictly under 3 µM in IC50. Query: CC[C@H](C)[C@H](NC(=O)[C@@H](NC(=O)[C@H](CC(C)C)NC(=O)[C@H](CC(N)=O)NC(=O)[C@H](CCCNC(=N)N)NC(=O)[C@H](CCCCN)NC(=O)[C@H](CCCCN)NC(=O)[C@H](Cc1ccccc1)NC(=O)[C@H](CCSC)NC(=O)[C@H](CCC(=O)O)NC(=O)[C@H](CCC(=O)O)NC(=O)[C@H](CCC(=O)O)NC(=O)[C@H](CC(C)C)NC(=O)[C@H](CCC(=O)O)NC(=O)[C@@H]1CCCN1)[C@@H](C)O)C(=O)O
class 0

Strictly below 3 µM: is that where IC50 of CC[C@H](C)[C@H](NC(=O)[C@@H](N)CCCCN)C(=O)N[C@H](C(=O)N[C@@H](CCC(N)=O)C(=O)N[C@@H](Cc1c[nH]c2ccccc12)C(=O)N[C@@H](CC(C)C)C(=O)N[C@@H](CCC(=O)O)C(=O)N[C@H](C(=O)N[C@@H](CCCCN)C(=O)NCC(=O)N[C@H](C(=O)N[C@@H](CCC(=O)O)C(=O)N[C@@H](CCCNC(=N)N)C(=O)N[C@@H](CC(C)C)C(=O)N[C@@H](CCCCN)C(=O)N[C@@H](CCCNC(=N)N)C(=O)N[C@@H](CCSC)C(=O)O)C(C)C)[C@@H](C)O)[C@@H](C)O sits?
class 0

Confirm or reject: IC50 of CC[C@H](C)[C@H](NC(=O)[C@H](CCC(=O)O)NC(=O)CNC(=O)[C@H](CCCNC(=N)N)NC(=O)[C@H](CCCCN)NC(=O)[C@H](CC(C)C)NC(=O)CNC(=O)[C@H](CCC(=O)O)NC(=O)[C@H](CCCCN)NC(=O)[C@H](C)NC(=O)[C@H](CCC(=O)O)NC(=O)[C@@H](N)[C@@H](C)O)C(=O)N[C@H](C(=O)N[C@@H](Cc1c[nH]cn1)C(=O)N[C@@H](Cc1c[nH]cn1)C(=O)N[C@@H](C)C(=O)N[C@H](C(=O)O)C(C)C)[C@@H](C)O lies strictly below 3 µM
class 1

The measured values listed here are drawn from paper PMC3794980.
